Reference source: patent US20260167619A2

Target: BaF3-WT cells (Homo sapiens)
Sequence (P00533 whole entry, change not shown): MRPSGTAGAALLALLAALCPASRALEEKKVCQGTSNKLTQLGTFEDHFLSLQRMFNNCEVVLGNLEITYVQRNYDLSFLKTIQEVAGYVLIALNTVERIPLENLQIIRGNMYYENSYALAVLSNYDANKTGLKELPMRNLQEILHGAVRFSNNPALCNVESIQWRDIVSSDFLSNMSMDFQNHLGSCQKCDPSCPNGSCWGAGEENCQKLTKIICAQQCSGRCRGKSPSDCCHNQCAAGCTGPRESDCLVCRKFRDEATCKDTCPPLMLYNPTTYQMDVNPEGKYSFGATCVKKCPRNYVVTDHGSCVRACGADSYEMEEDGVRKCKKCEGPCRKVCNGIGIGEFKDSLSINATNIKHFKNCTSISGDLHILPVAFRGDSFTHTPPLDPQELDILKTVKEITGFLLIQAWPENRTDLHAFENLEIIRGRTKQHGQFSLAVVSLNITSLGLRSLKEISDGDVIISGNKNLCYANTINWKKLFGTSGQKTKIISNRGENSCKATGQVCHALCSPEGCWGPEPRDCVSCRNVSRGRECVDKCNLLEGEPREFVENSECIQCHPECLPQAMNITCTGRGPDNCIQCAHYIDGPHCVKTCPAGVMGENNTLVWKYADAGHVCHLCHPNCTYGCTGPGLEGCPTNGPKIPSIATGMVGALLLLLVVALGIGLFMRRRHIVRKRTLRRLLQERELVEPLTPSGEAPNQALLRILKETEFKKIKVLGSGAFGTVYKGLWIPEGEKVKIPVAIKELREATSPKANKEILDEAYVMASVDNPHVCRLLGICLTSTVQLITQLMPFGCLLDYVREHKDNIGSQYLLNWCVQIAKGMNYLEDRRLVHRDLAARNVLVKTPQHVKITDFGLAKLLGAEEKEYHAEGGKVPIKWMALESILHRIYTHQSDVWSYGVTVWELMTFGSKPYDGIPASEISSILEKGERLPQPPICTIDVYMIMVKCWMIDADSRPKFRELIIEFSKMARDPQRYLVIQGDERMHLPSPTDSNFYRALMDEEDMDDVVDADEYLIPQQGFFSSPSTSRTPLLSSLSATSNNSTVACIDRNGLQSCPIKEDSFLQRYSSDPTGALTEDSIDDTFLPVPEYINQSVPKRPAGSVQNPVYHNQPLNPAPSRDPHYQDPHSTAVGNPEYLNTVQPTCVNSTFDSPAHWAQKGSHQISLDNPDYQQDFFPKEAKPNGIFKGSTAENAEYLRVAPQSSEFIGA
Assay: Cell antiproliferation assay (CellTiter-Glo), BaF3-WT
Assay type: cell-based
Details: 48 h treatment, read-out: BaF3-WT IC50
readout_kind: GI50 (µM)
Kindly answer with a numeric value in µM, unit omitted.

Incoming: I am curious: what GI50 value has been reported for COc1cc(N2CCC(N3CCN(C)CC3)CC2)ccc1Nc1ncc(Cl)c(Nc2cccc3c2N(S(C)(=O)=O)CC3C)n1 (centres unmarked) ?
Outgoing: 0.453

Incoming: And then "CN(C)C1CCN(c2ccc(Nc3ncc(Br)c(Nc4cccc5c4N(S(C)(=O)=O)CC5)n3)c3c2CCO3)CC1" , what is it?
Outgoing: 0.361

Incoming: And then "COc1cc(N2CCC(N3CCN(C)CC3)CC2)ccc1Nc1ncc(Cl)c(Nc2ccc(Br)c3c2N(S(C)(=O)=O)CC3)n1" , what is it?
Outgoing: 0.511

Incoming: And then COc1cc(N2CCC(N3CCN(C)CC3)CC2)ccc1Nc1ncc(Cl)c(Nc2cccc3c2N(S(C)(=O)=O)C(C)C3)n1 (centres unmarked) , what is it?
Outgoing: 0.422

Incoming: And then "CCOc1cc(N2CCC(N3CCN(C)CC3)CC2)c(C)cc1Nc1nc(Nc2cccc3c2N(S(C)(=O)=O)CC3)c2cc[nH]c2n1" , what is it?
Outgoing: 1.52

Incoming: And then "COc1cc(N2CCN(C)[C@H](C)C2)c(C)cc1Nc1nc(Nc2cccc3c2N(S(C)(=O)=O)CC3)c2cc[nH]c2n1" , what is it?
Outgoing: 1.96

Incoming: And then "COc1cc(N2CCC(N3CCN(C)CC3)CC2)ccc1Nc1ncc(Br)c(Nc2cccc3c2N(S(C)(=O)=O)CC3)n1" , what is it?
Outgoing: 0.427

Incoming: And then "COc1cc(N2CCC(N3CCN(C)CC3)CC2)ccc1Nc1ncc(Cl)c(Nc2cccc3c2N(S(=O)(=O)C(C)(C)C)CC3)n1" , what is it?
Outgoing: 1.64

Incoming: And then "CN1CCN(C2CCN(c3ccc(Nc4ncc(Cl)c(Nc5cccc6c5N(S(C)(=O)=O)CC6)n4)c4c3CCO4)CC2)CC1" , what is it?
Outgoing: 1.51

Incoming: And then "COc1cc(N2CCN(C)[C@@H](C)C2)c(C)cc1Nc1nc(Nc2cccc3c2N(S(C)(=O)=O)CC3)c2cc[nH]c2n1" , what is it?
Outgoing: 2.09

Incoming: And then "COc1cc(N2CCC(N3CCN(C)CC3)CC2)c(F)cc1Nc1nc(Nc2cccc3c2N(S(C)(=O)=O)CC3)c2cc[nH]c2n1" , what is it?
Outgoing: 1.46

Incoming: And then "COc1cc(N2CCC3(CCN(C)CC3)CC2)c(Cl)cc1Nc1nc(Nc2cccc3c2N(S(C)(=O)=O)CC3)c2cc[nH]c2n1" , what is it?
Outgoing: 1.48

Incoming: And then "CN1CCN(C2CCN(c3ccc(Nc4ncc(Br)c(Nc5cccc6c5N(S(C)(=O)=O)CC6)n4)c4c3CCO4)CC2)CC1" , what is it?
Outgoing: 2.73

Incoming: And then "COc1cc(N2CCC(N(C)C)CC2)ccc1Nc1ncc(Cl)c(Nc2cccc3c2N(S(C)(=O)=O)CC3)n1" , what is it?
Outgoing: 0.414
